These measurements were taken from PubChem BioAssay (NCATS).

- assay_summary: Quantitative High-Throughput drug screen in 47 multiple myeloma cell lines against the NCATS MIPE library collection: LP1_DSMZ cell viability assay (AID 1918982); further: nearly all actives have a fitted effect of over 35% in size
- condition_parameters: LP1 myeloma viability, CellTiter-Glo ATP luminescence, 48 h; series mostly up to 45.8 µM
Records with an inconclusive call do not appear. Active and inactive are the calls of the source. The call rests on the fitted dose curve; in most records, active means well fitted cell-killing curve with a large enough effect; inconclusive means small, poorly fitted or top-dose-only effect, or effect the other way; inactive means no such curve, though single readings can be large or run the other way.
Classes used: active, inactive

[
  {
    "smiles_code": "CC(C)c1cnn2c(NCc3ccccc3)cc(N[C@@H](CO)[C@H](O)CO)nc12",
    "discrete_label": "active"
  },
  {
    "smiles_code": "Cc1[nH]nc2ccc(-c3cncc(OC[C@@H](N)Cc4ccccc4)c3)cc12",
    "discrete_label": "active"
  },
  {
    "smiles_code": "Cc1cc(Nc2ncnc3ccc(-c4ccc(CNCCS(C)(=O)=O)o4)cc23)ccc1Oc1ccn2ncnc2c1",
    "discrete_label": "active"
  },
  {
    "smiles_code": "CN1CC[C@@H](c2c(O)cc(O)c3c(=O)cc(-c4ccccc4Cl)oc23)[C@@H](O)C1",
    "discrete_label": "active"
  },
  {
    "smiles_code": "Cc1cnc(Nc2ccc(F)cc2Cl)nc1-c1c[nH]c(C(=O)N[C@H](CO)c2cccc(Cl)c2)c1",
    "discrete_label": "active"
  },
  {
    "smiles_code": "Cc1cc(Nc2cc(N3CCN(C)CC3)nc(C=Cc3ccccc3)n2)n[nH]1",
    "discrete_label": "active"
  },
  {
    "smiles_code": "N#CCNC(=O)c1ccc(-c2ccnc(Nc3ccc(N4CCOCC4)cc3)n2)cc1",
    "discrete_label": "active"
  },
  {
    "smiles_code": "O=c1c2ccccc2nc2n1CCc1c-2[nH]c2ccccc12",
    "discrete_label": "inactive"
  },
  {
    "smiles_code": "COc1cccc2nc(-c3cccs3)nc(NN3C(=O)C=C(C)C3=O)c12",
    "discrete_label": "active"
  }
]

* * *

The following compounds are listed with their measured viability values.
- assay_summary: Quantitative High-Throughput drug screen in 47 multiple myeloma cell lines against the NCATS MIPE library collection: SKMM1_PLB cell viability assay (AID 1919863); further: nearly all actives have a fitted effect of over 35% in size
- condition_parameters: SKMM1 myeloma viability, CellTiter-Glo ATP, 48 h; active compounds read low
Records with an inconclusive call do not appear.

[
  {
    "compound": "COc1ccc(C=Cc2cc(OC)c(OC)c(OC)c2)cc1O",
    "viability, %": 34.9
  },
  {
    "compound": "CC(=O)SC[C@@H](C)C(=O)N1CCC[C@H]1C(=O)N[C@@H](Cc1ccccc1)C(=O)O",
    "viability, %": 151
  },
  {
    "compound": "O=C(O)[C@H](Cc1c[nH]c2ccccc12)N1C(=O)c2ccccc2C1=O",
    "viability, %": 111
  },
  {
    "compound": "CN1c2cc(O)c(N=NC(N)=O)cc2CC1S(=O)(=O)O (configuration not stated)",
    "viability, %": 97.7
  },
  {
    "compound": "Cn1c(CNc2ccc(C(=N)N)cc2)nc2cc(C(=O)N(CCC(=O)O)c3ccccn3)ccc21",
    "viability, %": 127
  },
  {
    "compound": "Cn1c2cc(S(C)=O)sc2c2cnn(Cc3cccc(N)c3)c(=O)c21 (configuration not stated)",
    "viability, %": 114
  },
  {
    "compound": "O=C(O)CCCc1c[nH]c2ccccc12",
    "viability, %": 113
  },
  {
    "compound": "CCCCCCCCCC(=O)N[C@@H](Cc1c[nH]c2ccccc12)C(=O)N[C@H](CC(N)=O)C(=O)N[C@@H](CC(=O)O)C(=O)N[C@@H]1C(=O)NCC(=O)N[C@@H](CCCN)C(=O)N[C@@H](CC(=O)O)C(=O)N[C@H](C)C(=O)N[C@@H](CC(=O)O)C(=O)NCC(=O)N[C@H](CO)C(=O)N[C@@H]([C@@H](C)CC(=O)O)C(=O)N[C@@H](CC(=O)c2ccccc2N)C(=O)O[C@@H]1C",
    "viability, %": 145
  },
  {
    "compound": "Clc1cccc(-n2nnnc2NCc2ccccc2Oc2ccccn2)c1Cl",
    "viability, %": 120
  },
  {
    "compound": "CC1COC2(CCN(c3nc(=O)c4cc(C(F)(F)F)cc([N+](=O)[O-])c4s3)CC2)O1 (configuration not stated)",
    "viability, %": 134
  },
  {
    "compound": "COc1cccc(Nc2c(C(N)=O)cnc3c(C)cc(S(=O)(=O)c4cccc(C(=O)N(C)C)c4)cc23)c1",
    "viability, %": 113
  },
  {
    "compound": "CC(C)(C)c1cc(C(C)(C)C)c(NC(=O)c2c[nH]c3ccccc3c2=O)cc1O",
    "viability, %": 97.5
  },
  {
    "compound": "CNC(=O)c1ccc(-c2cnc3ncc(Cc4ccc5ncccc5c4)n3n2)cc1F",
    "viability, %": 133
  },
  {
    "compound": "Nc1ccc(S(=O)(=O)Nc2ncccn2)cc1",
    "viability, %": 155
  },
  {
    "compound": "C[C@H]1C[C@@H]2[C@@H]([C@@H](O)C[C@@]3(C)[C@H]2CC[C@]3(O)C(=O)CO)[C@@]2(C)C=CC(=O)C=C12",
    "viability, %": 112
  },
  {
    "compound": "COC(=O)C1=C(C)NC(C)=C(C(=O)OCCN2CCN(C(c3ccccc3)c3ccccc3)CC2)C1c1cccc([N+](=O)[O-])c1 (configuration not stated)",
    "viability, %": 126
  },
  {
    "compound": "C1Cc2[nH]nc(-c3nn[nH]n3)c2C1",
    "viability, %": 115
  }
]

* * *

- system_tested: Cytochrome P450 2D6 (Homo sapiens)
- assay_summary: Cytochrome P450 family 2 subfamily D member 6 (CYP2D6) small molecule antagonists: luciferase biochemical (cell-free) qHTS assay (AID 1645840); further: nearly all actives have a fitted effect of over 55% in size
- condition_parameters: P450-Glo CYP2D6 enzyme, luciferin luminescence, 1 h; series mostly up to 57.4 µM
Records with an inconclusive call do not appear. Active and inactive are the calls of the source. Calls come from the whole dose curve; as a rule, active = well fitted inhibition curve with a large enough effect in the repeat runs; inconclusive = weak or mixed curves; inactive = flat fitted curve, though single readings scatter.
Classes used: active, inactive

[
  {
    "compound": "Clc1cccc(-c2nnnn2Cc2cccnc2)c1Cl",
    "discrete_label": "inactive"
  },
  {
    "compound": "O=C(O)Cn1nnc(-c2cc(N3CCC(Oc4cc(F)ccc4Br)CC3)no2)n1",
    "discrete_label": "inactive"
  },
  {
    "compound": "COc1cc2c(Oc3ccc(-c4cnc(Nc5ccc(F)cc5)n(C)c4=O)cc3F)ccnc2cc1OCCCN1CCOCC1",
    "discrete_label": "inactive"
  },
  {
    "compound": "C=CCn1c(=O)c2cnc(Nc3ccc(N4CCN(C)CC4)cc3)nc2n1-c1cccc(C(C)(C)O)n1",
    "discrete_label": "inactive"
  },
  {
    "compound": "CN(C)Cc1c(C(=O)NCCOc2ccc(C(=O)NO)cc2)oc2ccccc12",
    "discrete_label": "active"
  },
  {
    "compound": "COc1ccc2c(OCc3nnc4ccc(-c5ccccc5)nn34)ccnc2c1",
    "discrete_label": "inactive"
  },
  {
    "compound": "COc1ccc(F)c(F)c1C(=O)c1cnc(NC2CCN(S(C)(=O)=O)CC2)nc1N",
    "discrete_label": "inactive"
  },
  {
    "compound": "O=C(O)C1(Cc2cccc(Nc3nccs3)n2)CCC(Oc2cccc(Cl)c2F)CC1 (stereo not given)",
    "discrete_label": "inactive"
  },
  {
    "compound": "CC(C)c1nn(-c2c(Cl)cccc2Cl)c2nc(Cc3ccc(OCCO)cc3)[nH]c(=O)c12",
    "discrete_label": "inactive"
  },
  {
    "compound": "CCCCOc1c(C(=O)c2c(F)cc(C)cc2F)cnc2n[nH]cc12",
    "discrete_label": "inactive"
  },
  {
    "compound": "CC(=O)SC[C@@H](C)C(=O)N1CCC[C@H]1C(=O)N[C@@H](Cc1ccccc1)C(=O)O",
    "discrete_label": "inactive"
  },
  {
    "compound": "Cc1[nH]nc2ccc(-c3cncc(OC[C@@H](N)Cc4ccccc4)c3)cc12",
    "discrete_label": "active"
  },
  {
    "compound": "Nc1ncnc2c1c(-c1cnc3[nH]ccc3c1)nn2C1CCCC1",
    "discrete_label": "inactive"
  },
  {
    "compound": "COc1ccc2c(c1)CC[C@@H](CN(C)CC(=O)O)[C@H]2c1ccccc1",
    "discrete_label": "inactive"
  },
  {
    "compound": "COc1cc(C)c(Sc2cnc(NC(=O)c3ccc(CNC(C)C(C)C)cc3)s2)cc1C(=O)N1CCN(C(C)=O)CC1 (stereo not given)",
    "discrete_label": "active"
  },
  {
    "compound": "CC(C)Nc1cc(C(F)(F)F)cc2nc(NC(=O)c3cccnc3)nn12",
    "discrete_label": "inactive"
  },
  {
    "compound": "Cc1coc2c1C(=O)C(=O)c1c-2ccc2c1CCCC2(C)C",
    "discrete_label": "active"
  },
  {
    "compound": "CC(C)c1cnn2c(NCc3ccccc3)cc(N[C@@H](CO)[C@H](O)CO)nc12",
    "discrete_label": "inactive"
  },
  {
    "compound": "C#Cc1cccc(Nc2ncnc3cc(OC)c(OCCCCCCC(=O)NO)cc23)c1",
    "discrete_label": "active"
  },
  {
    "compound": "Cc1ccc(NC(=O)C2(c3ccc4c(c3)OC(F)(F)O4)CC2)nc1-c1cccc(C(=O)O)c1",
    "discrete_label": "inactive"
  }
]
